biological target: Recombinant human MAO-A (Homo sapiens, UniProt P21397); assay: Inhibition of MAO-A; assay type: biochemical; conditions: read-out: Residual activities at 10 μM (%) MAO-A
Sequence (P21397 whole entry): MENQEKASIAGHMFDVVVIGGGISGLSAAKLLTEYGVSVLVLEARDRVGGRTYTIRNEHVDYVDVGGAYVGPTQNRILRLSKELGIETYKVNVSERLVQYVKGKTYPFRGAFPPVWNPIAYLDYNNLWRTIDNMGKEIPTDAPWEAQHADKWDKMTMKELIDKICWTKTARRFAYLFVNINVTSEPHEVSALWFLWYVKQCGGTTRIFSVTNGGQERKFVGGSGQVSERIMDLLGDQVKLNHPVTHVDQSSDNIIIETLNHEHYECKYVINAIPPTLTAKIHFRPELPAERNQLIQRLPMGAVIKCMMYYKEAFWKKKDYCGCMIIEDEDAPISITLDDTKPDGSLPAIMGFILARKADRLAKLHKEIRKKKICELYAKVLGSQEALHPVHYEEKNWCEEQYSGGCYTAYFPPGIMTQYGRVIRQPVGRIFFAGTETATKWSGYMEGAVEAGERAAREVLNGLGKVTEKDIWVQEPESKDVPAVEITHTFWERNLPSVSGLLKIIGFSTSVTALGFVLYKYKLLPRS
Listed below: remaining activity at 10 µM values for each entry.
Could you give me the number in %? Just the number is fine.

Record excerpt, results attached:
• O=C1c2ccccc2NC12CCCC2 [Compound 10a] = 66.9
• Cc1ccc2c(c1)C(=O)C1(CCCC1)N2Cc1ccccc1 [Compound 11b] = 79.6
• Cc1ccc2c(c1)C(=O)C1(CCCC1)N2 [Compound 10b] = 72.2
• O=C1c2ccccc2N(Cc2ccc(Br)cc2)C12CCCC2 [Compound 11f] = 67.9
• O=C1c2cc(Br)ccc2N(Cc2ccccc2)C12CCCC2 [Compound 11d] = 62

Now look at this entry.
Request: Any idea what its remaining activity at 10 µM is? The compound is O=C1c2ccccc2N(Cc2ccccc2Br)C12CCCC2 [Compound 11k]
Result: 41.9

Values from paper PMC10442599
